- targetSystem: CAR (NR1I3) (Homo sapiens, UniProt Q14994)
- Sequence (Q14994 whole entry): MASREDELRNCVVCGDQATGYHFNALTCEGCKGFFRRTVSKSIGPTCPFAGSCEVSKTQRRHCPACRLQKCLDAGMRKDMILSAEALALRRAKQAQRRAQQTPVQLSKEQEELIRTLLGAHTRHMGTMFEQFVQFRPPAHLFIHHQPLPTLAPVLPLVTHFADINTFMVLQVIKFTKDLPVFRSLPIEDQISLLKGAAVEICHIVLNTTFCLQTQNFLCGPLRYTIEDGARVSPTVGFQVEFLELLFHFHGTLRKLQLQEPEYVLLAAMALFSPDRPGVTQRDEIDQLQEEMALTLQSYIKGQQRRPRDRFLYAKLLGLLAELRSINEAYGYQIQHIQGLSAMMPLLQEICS
- methodNotes: ATG_PBREM_CIS: Factorial reporter gene assay (HepG2)
- Format: cell-based
- Parameters: endogenous in cells; host or cells: HepG2
- conditionContext: HepG2 reporter
measurementKind: ATG_PBREM_CIS
Answer with the value's number alone.

compound	ATG_PBREM_CIS
CCc1nn(C)c(C(=O)NCc2ccc(C(C)(C)C)cc2)c1Cl	5.745
CC(C)(C)c1ccc(CSc2cnn(C(C)(C)C)c(=O)c2Cl)cc1	5.699

input: State its ATG_PBREM_CIS: CCCN(CC)CC1COC2(CCC(C(C)(C)C)CC2)O1 (centres unmarked)
output: 4.721

input: State its ATG_PBREM_CIS: C=C(C)[C@H]1Cc2c(ccc3c2O[C@@H]2COc4cc(OC)c(OC)cc4[C@@H]2C3=O)O1
output: 6.638

input: State its ATG_PBREM_CIS: COC(=O)N(OC)c1ccccc1COc1ccn(-c2ccc(Cl)cc2)n1
output: 5.658

Data credit: paper PMC3038857
